These measurements were taken from patent US9889129B2.

System: A549 non-small cell lung cells; pancreatic cells (Panc-1); colon cells (HCT-116)
Assay: MTT Assay II
Format: cell-based
Conditions: A549, Panc-1, HCT-116, read-out: IC50s
Assay endpoint: IC50

{"Compound": "Nc1ccn([C@@H]2O[C@H](CO)[C@@H](O)C2(F)F)c(=O)n1 [Gemcitabien, reference compound]", "Result": "100 to 500 nM"}

* * *

In this section we review reported pIC50 values for a set of compounds.
Biological target: RR (Homo sapiens, UniProt P23921)
Sequence (P23921 1-792): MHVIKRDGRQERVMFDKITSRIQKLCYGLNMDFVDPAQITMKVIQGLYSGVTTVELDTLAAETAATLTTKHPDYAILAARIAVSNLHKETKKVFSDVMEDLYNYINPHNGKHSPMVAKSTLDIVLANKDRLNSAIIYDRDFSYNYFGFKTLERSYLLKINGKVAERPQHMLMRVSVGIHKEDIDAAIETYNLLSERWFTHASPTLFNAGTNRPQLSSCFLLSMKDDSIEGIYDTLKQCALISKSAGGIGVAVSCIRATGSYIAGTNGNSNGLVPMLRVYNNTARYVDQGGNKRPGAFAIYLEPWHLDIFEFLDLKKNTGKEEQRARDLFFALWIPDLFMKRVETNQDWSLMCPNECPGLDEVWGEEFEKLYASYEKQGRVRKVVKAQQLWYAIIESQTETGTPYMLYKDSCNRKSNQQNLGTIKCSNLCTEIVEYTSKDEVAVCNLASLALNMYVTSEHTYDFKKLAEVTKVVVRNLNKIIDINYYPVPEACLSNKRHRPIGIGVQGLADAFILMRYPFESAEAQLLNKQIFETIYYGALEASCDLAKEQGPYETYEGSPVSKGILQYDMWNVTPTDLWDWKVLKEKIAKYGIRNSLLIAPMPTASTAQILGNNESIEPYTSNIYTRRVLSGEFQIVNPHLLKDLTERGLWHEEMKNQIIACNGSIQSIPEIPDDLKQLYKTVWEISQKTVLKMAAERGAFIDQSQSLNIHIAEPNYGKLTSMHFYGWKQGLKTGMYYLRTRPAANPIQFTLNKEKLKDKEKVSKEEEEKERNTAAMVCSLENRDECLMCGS
pIC50: −log10 of the molar value.
Assay endpoint: pIC50

{"Compound": "O=C(CC1CCCCC1)N/N=C\\c1cccc2cccc(O)c12 [Compound 3]", "Result": 6.65}
{"Compound": "CCCCCCCCCCCCC(=O)NCC(=O)NC(CCCCN)C(=O)OC (stereo not drawn) [Compound 5]", "Result": "5.00 to 5.30"}
{"Compound": "OC(COc1ccc2c(c1)CCC2)CN1CCN(Cc2ccccc2)CC1 (stereo not drawn) [Compound 4]", "Result": "5.00 to 5.30"}
